Sourced from ChEMBL document CHEMBL1932998

pIC50: −log10 of the molar value.
Please consider the recorded pIC50 for UniProt:P97612 in what follows.
Sequence (P97612 whole entry): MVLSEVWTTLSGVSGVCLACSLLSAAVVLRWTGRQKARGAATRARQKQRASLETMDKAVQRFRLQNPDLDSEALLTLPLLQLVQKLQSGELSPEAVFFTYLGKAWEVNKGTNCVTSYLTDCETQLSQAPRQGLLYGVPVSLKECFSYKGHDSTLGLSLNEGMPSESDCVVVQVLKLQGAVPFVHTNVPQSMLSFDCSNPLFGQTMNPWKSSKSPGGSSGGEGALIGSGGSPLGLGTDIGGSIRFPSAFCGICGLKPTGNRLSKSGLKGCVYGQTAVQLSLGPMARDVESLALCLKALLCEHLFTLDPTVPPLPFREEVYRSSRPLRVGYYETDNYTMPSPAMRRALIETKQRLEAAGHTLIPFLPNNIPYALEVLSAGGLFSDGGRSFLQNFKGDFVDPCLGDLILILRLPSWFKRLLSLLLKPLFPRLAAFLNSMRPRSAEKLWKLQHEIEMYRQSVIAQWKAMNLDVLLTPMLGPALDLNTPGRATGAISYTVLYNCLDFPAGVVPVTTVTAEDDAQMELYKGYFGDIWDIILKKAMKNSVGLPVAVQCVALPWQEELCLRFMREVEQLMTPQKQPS
property: pIC50

* CCCCCCCC(=O)c1ncc(CCS(=O)(=O)CCCN(C)C)o1 | 5.70
* CCCCCCCCCCCC(=O)c1ncc(CCS(=O)(=O)CCCN(C)C)o1 | 6.43
* O=C(CCCCCc1ccccc1)c1nc2ncccc2o1 | 8.54
* Cc1nc(-c2ccccc2)c(-c2ccccc2)n1CCCCCCNC(=O)Oc1ccccc1 | 6.47
* CCCCCCCCCCCC(=O)c1ncc(CCCS(=O)(=O)CCCN(C)C)o1 | 6.54
* CCCCCCCC(=O)c1ncc(CCCS(=O)(=O)CCCN(C)C)o1 | 5.62
